- Measurement Protocol: AUC (0 to 24 hrs) in Sprague-Dawley rat at 5 mg/kg, po
- Format: ADME, organism-based
- Design: dose 5 mg/kg, time < 24 hr, route oral
- Conditions Used: in vivo
Measure: AUC(0-t) at 24 h (µM·h)
Express your answer in µM·h, writing the number without its unit.

input: Returns the measured AUC(0-t) at 24 h for the input compound. Input: O=C(c1ccc(-c2nc3ccc(F)cc3o2)cc1)N1CCN(C(=O)C2(O)CC2)CC1
output: 440

----------
- Measurement Protocol: Stability in mouse liver microsomes assessed as compound remaining after 30 mins
- Assay type: ADME, Microsome
- Conditions Used: read-out: Stability
Our labelling divides records by remaining at 0.5 h into ranges: lower level (below 80%), middle level (80% to below 90%), upper level (90% or more)

Solved cases (8 shown):
                           smiles_structure         class
0  Cn1c(-c2ccc(C(=O)N3CCN(C(=O)C4(O)CC4)CC3)cc2)cc2ccccc21  middle level
1  O=C(c1ccc(-c2nc3cc(Cl)ccc3o2)cc1)N1CCN(C(=O)C2(O)CC2)CC1  middle level
2  O=C(c1ccc(-c2ccccc2)cc1)N1CCN(C(=O)[C@@H]2CCCO2)CC1   lower level
3  O=C(c1ccc(-c2nc3ccc(F)cc3o2)cc1)N1CCN(C(=O)C2(O)CC2)CC1   upper level
4  O=C(c1ccc(-c2cnc3ccccc3c2)cc1)N1CCN(C(=O)C2(O)CC2)CC1  middle level
5  O=C(c1ccc(-c2ccc3ocnc3c2)cc1)N1CCN(C(=O)C2(O)CC2)CC1   lower level
6  O=C(c1ccc(-c2cc(Cl)ccc2F)cc1)N1CCN(C(=O)C2(O)CC2)CC1   lower level
7  O=C(c1ccc(-c2nc3ccccc3s2)cc1)N1CCN(C(=O)C2(O)CC2)CC1  middle level

input: // return the class label for CC(C)(O)C(=O)N1CCN(C(=O)c2ccc(-c3ccccc3)cc2)CC1
output: upper level

input: Please report the category associated with O=C(c1ccc(-c2ccccc2)cc1)N1CCN(C(=O)[C@H]2CCCO2)CC1 , nothing else.
output: upper level

input: Lab note: sort O=C(c1ccc(-c2ccccc2)cc1)N1CCN(C(=O)C2(O)CC2)CC1 into the matching remaining at 0.5 h band.
output: upper level

input: Sort into band: O=C(c1ccc(-c2ccc3cnccc3c2)cc1)N1CCN(C(=O)C2(O)CC2)CC1
output: lower level

input: Where would O=C(c1ccc(-c2ccc3[nH]ccc3c2)cc1)N1CCN(C(=O)C2(O)CC2)CC1 land among the classes by reported remaining at 0.5 h?
output: lower level

input: In plain terms, what class is O=C(c1ccc(-c2ccccc2)cc1)N1CCN(C(=O)C2(O)CCC2)CC1 ?
output: middle level

input: Bin this entry: O=C(c1ccc(-c2ccc(F)cc2Cl)cc1)N1CCN(C(=O)C2(O)CC2)CC1
output: lower level

input: GET /class?item= O=C(c1ccc(-c2nc3ccccc3o2)cc1)N1CCN(C(=O)C2(O)CC2)CC1
output: upper level

input: Category of O=C(c1ccc(-c2nc3cc(F)ccc3o2)cc1)N1CCN(C(=O)C2(O)CC2)CC1 , please.
output: upper level
